// remaining activity at 10 µM lookup, one value per entry
- Tested target: p70S6K (Homo sapiens, UniProt P23443)
- Construct: purchased Eurofins Pharma Discovery Services (KinaseProfiler; Cerep BioPrint panel)
- Sequence (P23443 whole entry): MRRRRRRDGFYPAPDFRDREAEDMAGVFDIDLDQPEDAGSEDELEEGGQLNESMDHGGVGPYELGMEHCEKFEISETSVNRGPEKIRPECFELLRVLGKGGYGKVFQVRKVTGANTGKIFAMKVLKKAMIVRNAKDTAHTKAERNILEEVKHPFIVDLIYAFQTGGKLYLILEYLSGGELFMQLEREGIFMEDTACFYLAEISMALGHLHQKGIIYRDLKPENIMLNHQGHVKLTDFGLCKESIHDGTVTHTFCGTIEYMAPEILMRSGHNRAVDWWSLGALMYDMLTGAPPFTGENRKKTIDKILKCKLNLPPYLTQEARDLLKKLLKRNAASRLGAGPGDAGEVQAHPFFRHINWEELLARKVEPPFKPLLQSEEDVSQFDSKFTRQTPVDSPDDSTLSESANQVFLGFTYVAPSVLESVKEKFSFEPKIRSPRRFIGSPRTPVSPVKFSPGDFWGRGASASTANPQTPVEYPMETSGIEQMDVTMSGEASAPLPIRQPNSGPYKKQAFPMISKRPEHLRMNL
- Assay details: kinase selectivity panel
- Assay type: biochemical
- Condition info: read-out: percentage of control activity (POC), p70S6K
- Procedure: Kinase selectivity was evaluated at Eurofins Pharma Discovery Services using a selection of 125 representative kinases tested at a concentration of 10 μM in duplicate (S3 Table). IC50 values for selected activities were further characterized at 9 duplicate concentrations. DNA-PK activity was determined at the SelectScreen® Biochemical kinase Profiling Service of Thermo Fisher Scientific.
Answer as a quantity: numeral, then unit.

Below, each entry is followed by its recorded remaining activity at 10 µM result.
Field request: remaining activity at 10 µM | item: COc1c(NC(=O)c2ccc(C)c(-c3nnc4c(NCC(C)(C)C)nccn34)c2)cc(C(C)(C)C)cc1NS(C)(=O)=O [compound 7, reference compound]
102%

Looking for the measured remaining activity at 10 µM of Cc1ccc(C(=O)NCC2CC2)cc1-c1ccc2c(c1)NC(=O)C21CCCC1 [compound 3] , can you help?
95%

What value of remaining activity at 10 µM has been reported for the following compound? CS(=O)(=O)N1CCN(c2ccc(Nc3ncc(C(N)=O)c(NC4CC4)n3)cc2)CC1 [compound 5]
54%

Suppose we examine the compound Cn1cc(-c2cccc(-c3nc(C(=O)NC4C5CC6CC4CC(O)(C6)C5)c(N)nc3N)c2)cn1 (centres unmarked) [compound 4] ; what remaining activity at 10 µM value has been reported?
92%

Next compound, please.
Dear colleague, I am looking for the recorded remaining activity at 10 µM of the following compound: CC(C)(C)N1CCC(c2cc(-c3ccc(F)cc3Cl)c3cc[n+]([O-])c(-c4c(Cl)cccc4Cl)c3n2)CC1 [compound 2]
104%

----------
- Tested target: Rse (Homo sapiens)
- Construct: purchased Eurofins Pharma Discovery Services (KinaseProfiler; Cerep BioPrint panel)
- Sequence (Q06418 41-890): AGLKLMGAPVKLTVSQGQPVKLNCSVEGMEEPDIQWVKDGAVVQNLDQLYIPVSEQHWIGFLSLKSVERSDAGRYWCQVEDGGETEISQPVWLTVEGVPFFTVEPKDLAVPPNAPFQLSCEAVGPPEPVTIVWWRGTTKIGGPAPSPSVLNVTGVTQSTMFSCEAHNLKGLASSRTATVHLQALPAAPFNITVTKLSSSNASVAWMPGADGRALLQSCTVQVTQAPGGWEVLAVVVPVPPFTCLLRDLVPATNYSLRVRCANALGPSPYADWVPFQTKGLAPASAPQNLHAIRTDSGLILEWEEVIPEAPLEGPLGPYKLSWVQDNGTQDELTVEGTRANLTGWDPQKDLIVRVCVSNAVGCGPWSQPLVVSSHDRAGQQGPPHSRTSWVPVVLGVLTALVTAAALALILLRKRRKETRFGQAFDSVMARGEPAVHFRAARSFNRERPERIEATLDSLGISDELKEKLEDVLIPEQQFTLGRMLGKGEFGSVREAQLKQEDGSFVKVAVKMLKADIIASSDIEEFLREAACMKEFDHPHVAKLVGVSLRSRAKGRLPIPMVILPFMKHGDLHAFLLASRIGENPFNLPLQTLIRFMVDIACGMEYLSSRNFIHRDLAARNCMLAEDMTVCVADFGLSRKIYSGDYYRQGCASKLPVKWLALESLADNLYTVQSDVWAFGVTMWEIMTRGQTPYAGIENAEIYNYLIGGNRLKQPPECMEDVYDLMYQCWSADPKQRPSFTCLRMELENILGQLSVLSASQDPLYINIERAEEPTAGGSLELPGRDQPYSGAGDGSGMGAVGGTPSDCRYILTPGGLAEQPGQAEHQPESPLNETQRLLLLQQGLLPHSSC
- Assay details: kinase selectivity panel
- Type: biochemical
- Condition info: read-out: percentage of control activity (POC), Rse
Here the recorded remaining activity at 10 µM is given for each entry.
A number alone suffices; assume %.

Example cases with answers are listed next.
Using the record for "CS(=O)(=O)N1CCN(c2ccc(Nc3ncc(C(N)=O)c(NC4CC4)n3)cc2)CC1" , report its remaining activity at 10 µM.
33

Which remaining activity at 10 µM reading was recorded for the molecule "Cc1ccc(C(=O)NCC2CC2)cc1-c1ccc2c(c1)NC(=O)C21CCCC1" ?
99

Please report the recorded remaining activity at 10 µM for COc1c(NC(=O)c2ccc(C)c(-c3nnc4c(NCC(C)(C)C)nccn34)c2)cc(C(C)(C)C)cc1NS(C)(=O)=O [compound 7, reference compound] .
107

Could you tell me which remaining activity at 10 µM is on file for "CC(C)(C)N1CCC(c2cc(-c3ccc(F)cc3Cl)c3cc[n+]([O-])c(-c4c(Cl)cccc4Cl)c3n2)CC1" ?
109

Shift focus to the following entry.
Report remaining activity at 10 µM for Cn1cc(-c2cccc(-c3nc(C(=O)NC4C5CC6CC4CC(O)(C6)C5)c(N)nc3N)c2)cn1 (centres unmarked) please.
92

----------
- Tested target: GSK3α (Homo sapiens, UniProt P49840)
- Construct: purchased Eurofins Pharma Discovery Services (KinaseProfiler; Cerep BioPrint panel)
- Sequence (P49840 whole entry): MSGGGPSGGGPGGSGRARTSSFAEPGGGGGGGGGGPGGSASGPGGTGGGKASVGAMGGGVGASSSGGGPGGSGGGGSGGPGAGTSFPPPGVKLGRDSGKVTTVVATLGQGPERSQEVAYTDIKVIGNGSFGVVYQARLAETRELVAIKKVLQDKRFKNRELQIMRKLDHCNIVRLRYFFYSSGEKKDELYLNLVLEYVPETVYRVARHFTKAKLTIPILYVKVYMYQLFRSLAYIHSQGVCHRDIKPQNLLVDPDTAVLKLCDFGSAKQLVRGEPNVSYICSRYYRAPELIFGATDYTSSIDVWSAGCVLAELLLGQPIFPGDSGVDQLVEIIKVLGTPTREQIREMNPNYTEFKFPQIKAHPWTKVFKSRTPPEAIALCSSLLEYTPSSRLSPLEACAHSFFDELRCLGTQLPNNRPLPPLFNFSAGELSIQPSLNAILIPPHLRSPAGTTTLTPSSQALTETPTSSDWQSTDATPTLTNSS
- Assay details: kinase selectivity panel
- Assay type: biochemical
- Condition info: read-out: percentage of control activity (POC), GSK3α
Endpoint: remaining activity at 10 µM (%)
Note: unit % is implicit; provide only the numeric part.

The examples below pair each entry with its known result.
For CS(=O)(=O)N1CCN(c2ccc(Nc3ncc(C(N)=O)c(NC4CC4)n3)cc2)CC1 [compound 5] , what is its reported remaining activity at 10 µM?
40

Recorded remaining activity at 10 µM for Cc1ccc(C(=O)NCC2CC2)cc1-c1ccc2c(c1)NC(=O)C21CCCC1 [compound 3] , please?
95

Given the entry COc1c(NC(=O)c2ccc(C)c(-c3nnc4c(NCC(C)(C)C)nccn34)c2)cc(C(C)(C)C)cc1NS(C)(=O)=O [compound 7, reference compound] , report its measured remaining activity at 10 µM.
103

What does the record list as remaining activity at 10 µM for CC(C)(C)N1CCC(c2cc(-c3ccc(F)cc3Cl)c3cc[n+]([O-])c(-c4c(Cl)cccc4Cl)c3n2)CC1 [compound 2] ?
107

Could you now look at the following compound, please?
Item Cn1cc(-c2cccc(-c3nc(C(=O)NC4C5CC6CC4CC(O)(C6)C5)c(N)nc3N)c2)cn1 (centres unmarked) [compound 4] has what recorded remaining activity at 10 µM?
76
